test-target: hCA IX (Homo sapiens)
protocol: stopped-flow CO2 hydrase assay, hCA IX
Type: biochemical
settings: incubation time 6 h, mean of three experiments
For each record, write down the corresponding pKi.
// pKi: -log10(molar conc.)

Let me know recorded pKi for O=C(Nc1ccc(C(F)(F)F)cc1)Nc1ccc2oc(=O)ccc2c1 [Compound 5b] , thanks. 7.15

Let me know recorded pKi for O=C(Nc1ccc(Cl)c(C(F)(F)F)c1)Nc1ccc2oc(=O)ccc2c1 [Compound 5g] , thanks. 7.18

Let me know recorded pKi for CCCCc1ccc(NC(=O)Nc2ccc3oc(=O)ccc3c2)cc1 [Compound 5e] , thanks. 7.26

Let me know recorded pKi for O=C(Nc1ccc(Br)cc1)Nc1ccc2oc(=O)ccc2c1 [Compound 5d] , thanks. 7.15

Let me know recorded pKi for O=C(Nc1ccc2oc(=O)ccc2c1)Nc1ccc(F)cc1F [Compound 5m] , thanks. 7.59

Let me know recorded pKi for O=C(Nc1ccc2oc(=O)ccc2c1)Nc1c(Br)cc(F)cc1Br [Compound 5p] , thanks. 7.14

Let me know recorded pKi for O=C(Nc1ccc2oc(=O)ccc2c1)c1ccc(Cl)c(C(F)(F)F)c1 [Compound 7a] , thanks. 7.08

Let me know recorded pKi for O=C(Nc1ccc2oc(=O)ccc2c1)c1cc(C(F)(F)F)cc(C(F)(F)F)c1 [Compound 7b] , thanks. 7.25

Let me know recorded pKi for O=C(Nc1ccc(F)cc1)Nc1ccc2oc(=O)ccc2c1 [Compound 5c] , thanks. 7.38

Let me know recorded pKi for Cc1cc(C)cc(NC(=O)Nc2ccc3oc(=O)ccc3c2)c1 [Compound 5k] , thanks. 7.37

Let me know recorded pKi for O=C(Nc1cc(C(F)(F)F)cc(C(F)(F)F)c1)Nc1ccc2oc(=O)ccc2c1 [Compound 5i] , thanks. 7.83

Let me know recorded pKi for O=C(Nc1ccc2oc(=O)ccc2c1)Nc1ccc(Cl)cc1Cl [Compound 5l] , thanks. 7.30

Let me know recorded pKi for O=C(Nc1cccc(C(F)(F)F)c1)Nc1ccc2oc(=O)ccc2c1 [Compound 5a] , thanks. 7.34

Let me know recorded pKi for O=C(Nc1ccc2oc(=O)ccc2c1)c1cc(F)cc(F)c1 [Compound 7c] , thanks. 7.21

Let me know recorded pKi for Cc1cc(Cl)ccc1NC(=O)Nc1ccc2oc(=O)ccc2c1 [Compound 5n] , thanks. 7.55

Let me know recorded pKi for CCCCOc1ccc(NC(=O)Nc2ccc3oc(=O)ccc3c2)cc1 [Compound 5f] , thanks. 7.49

Let me know recorded pKi for O=C(Nc1ccc(F)c(Cl)c1)Nc1ccc2oc(=O)ccc2c1 [Compound 5h] , thanks. 7.62

Let me know recorded pKi for Cc1cccc(Cl)c1NC(=O)Nc1ccc2oc(=O)ccc2c1 [Compound 5o] , thanks. 7.72

Let me know recorded pKi for O=C(Nc1cc(Cl)cc(Cl)c1)Nc1ccc2oc(=O)ccc2c1 [Compound 5j] , thanks. 7.70

* * *

System: HCT-116 cells
protocol: MTT antiproliferative assay, HCT-116
Format: cell-based, human
settings: Homo sapiens, HCT-116, HCT116, 10 µM, mean ± SEM of three experiments, read-out: % Growth inhibition HCT116 10 µM
metric-name: inhibition at 10 µM (%)
Value expressed in %; do not type the unit.

Let me know recorded inhibition at 10 µM for Cc1cc(C)cc(NC(=O)Nc2ccc3oc(=O)ccc3c2)c1 , thanks. 14.5

Let me know recorded inhibition at 10 µM for O=C(Nc1cccc(C(F)(F)F)c1)Nc1ccc2oc(=O)ccc2c1 , thanks. 8

Let me know recorded inhibition at 10 µM for O=C(Nc1ccc2oc(=O)ccc2c1)c1ccc(Cl)c(C(F)(F)F)c1 , thanks. 14

Let me know recorded inhibition at 10 µM for O=C(Nc1ccc2oc(=O)ccc2c1)Nc1ccc(Cl)cc1Cl , thanks. 2.6

Let me know recorded inhibition at 10 µM for Cc1cc(Cl)ccc1NC(=O)Nc1ccc2oc(=O)ccc2c1 , thanks. 4.9

All figures here come from paper PMC9897768.
